- Tested on: SF-295
- assaySummary: NCI tumour cell line growth inhibition, 48 h
The source made the active and inactive calls. Cut-off read from the data, not from the text of the source: active = GI50 up to about 1.1 µM and inactive = higher.
observedProperty: GI50

Consider the worked cases shown below.
{"molecule": "Cc1nn2c(=O)c([N+](=O)[O-])c(/C=C/c3ccco3)nc2s1", "GI50": "91 µM (inactive)"}
{"molecule": "O=C1Cc2c([nH]c3ccc(Br)cc23)-c2ccccc2N1", "GI50": "> 100 µM (inactive)"}
{"molecule": "COC(=O)/C=C(\\C)CC/C=C(\\C)CCC(O)C(C)(C)O (configuration not stated)", "GI50": "23.1 µM (inactive)"}
{"molecule": "CSc1ccc2c(cc1=O)C(NC(=O)c1ccc(C#N)cc1)CCc1cc(O)c(O)c(O)c1-2 (configuration not stated)", "GI50": "27.2 µM (inactive)"}
{"molecule": "O=C(Nc1ccc(Cl)cc1)c1cc(S(=O)(=O)Nc2n[nH]c(=O)n2-c2ccccc2)c(S)cc1Cl", "GI50": "> 100 µM (inactive)"}
{"molecule": "C=CCOC(=O)N1c2ccc(O[Si](C)(C)C(C)(C)C)cc2[C@@]23O[C@@]24[C@@H]1C#C/C=C\\C#C[C@]3(O)C(OC)(OC)C[C@@H]4C", "GI50": "> 34.1 µM (inactive)"}
{"molecule": "CCN1CCCn2c(=O)[nH]c3cc(Br)cc1c32", "GI50": "35.1 µM (inactive)"}
{"molecule": "Oc1c(Cl)c(Cl)c(O)c(CCNc2nccs2)c1Cl", "GI50": "19.1 µM (inactive)"}
{"molecule": "OCCCc1cc(O)c2c(c1)C(CO)C(c1ccc(O)c(O)c1)O2 (configuration not stated)", "GI50": "> 100 µM (inactive)"}
{"molecule": "NCC#CCNCCCN1CC1", "GI50": "> 100 µM (inactive)"}

Problem: Please state recorded GI50 (tested on SF-295) of Cc1cc(C)nc(SCC(=O)OC2CC(C)CCC2C(C)C)n1 (configuration not stated)
Solution: 14.6 µM (inactive)

Problem: Please state recorded GI50 (tested on SF-295) of c1ccc2sc(C3(N4CCCCCC4)CCCCC3)cc2c1
Solution: 20.1 µM (inactive)

Problem: Please state recorded GI50 (tested on SF-295) of CCCCCNC(=O)c1c(O)[nH]c(=S)[nH]c1=O
Solution: 78.2 µM (inactive)

Problem: Please state recorded GI50 (tested on SF-295) of O=C(O)c1c2c(cc3c1CC1(Cc4ccccc4C1=O)C3)CCC2 (configuration not stated)
Solution: 38.6 µM (inactive)

Problem: Please state recorded GI50 (tested on SF-295) of COC1OC(C(=O)O)C2OC(C)(C)OC12 (configuration not stated)
Solution: > 100 µM (inactive)

Problem: Please state recorded GI50 (tested on SF-295) of CC1=NN(c2nc(N)nc(C(C)Cl)n2)C(C)(C)C1 (configuration not stated)
Solution: > 100 µM (inactive)

Problem: Please state recorded GI50 (tested on SF-295) of CCOc1ccc(/C=C\c2cc(OC)c(OC)c(OC)c2)cc1
Solution: < 0.0001 µM (active)

Problem: Please state recorded GI50 (tested on SF-295) of CN(C)CCSCCO
Solution: > 100 µM (inactive)

Problem: Please state recorded GI50 (tested on SF-295) of O=C1NC(c2ccccc2)(c2ccccc2)C(=O)N1CCCCCCN1C(=O)NC(c2ccccc2)(c2ccccc2)C1=O
Solution: 13.2 µM (inactive)

Problem: Please state recorded GI50 (tested on SF-295) of Cc1cc2c(cc1-c1cc3c(cc1C)C(C(C)C)=C(O)C(=O)/C3=C\Nc1cccc3c(N)cccc13)/C(=C/Nc1cccc3c(N)cccc13)C(=O)C(O)=C2C(C)C
Solution: > 100 µM (inactive)

Problem: Please state recorded GI50 (tested on SF-295) of O=S(=O)(/N=S(/Nc1ccccc1)C(F)(F)Cl)c1ccccc1 (configuration not stated)
Solution: > 100 µM (inactive)

Problem: Please state recorded GI50 (tested on SF-295) of N/C(S)=N/N=C/c1ccc(N)cn1
Solution: 3.52 µM (inactive)

###

- System: OVCAR-5
- assaySummary: NCI tumour cell line growth inhibition, 48 h
Active and inactive are the calls of the source. No stated cut-off is given here; in the data, active = GI50 up to about 1.1 µM and inactive = higher.
Entries and their GI50

Consider the worked cases shown below.
{"compound": "Cc1cc(O)nc(NNC(C#N)c2ccccc2O)n1 (stereo not given)", "GI50": "58.6 µM (inactive)"}
{"compound": "Cc1nn(C(=O)c2ccncc2)c2c1C(c1ccc(Cl)cc1)SC(=N)N2 (stereo not given)", "GI50": "> 10 µM (inactive)"}

Problem: I have this compound here, COC(=O)[C@@H](NC1(c2ccccc2)c2ccccc2-c2ccccc21)[C@@H](C(=O)OC)N(NC(=O)OCc1ccccc1)C(=O)OCc1ccccc1.COC(=O)[C@@H](NC1(c2ccccc2)c2ccccc2-c2ccccc21)[C@H](C(=O)OC)N(NC(=O)OCc1ccccc1)C(=O)OCc1ccccc1 , and I need its recorded GI50.
Solution: > 100 µM (inactive)

Problem: I have this compound here, CCOc1cc(C2CC(c3ccc(NS(=O)(=O)c4cc([N+](=O)[O-])ccc4C)cc3)=NN2c2ccc([N+](=O)[O-])cc2[N+](=O)[O-])ccc1O (stereo not given) , and I need its recorded GI50.
Solution: 23.4 µM (inactive)

Problem: I have this compound here, CSc1ccc2c(cc1=O)C(NC(=O)c1ccc(C#N)cc1)CCc1cc(O)c(O)c(O)c1-2 (stereo not given) , and I need its recorded GI50.
Solution: > 100 µM (inactive)

###

- Tested on: HT-29
- assaySummary: NCI tumour cell line growth inhibition, 48 h
The source made the active and inactive calls. Cut-off read from the data, not from the text of the source: active = GI50 up to about 1.1 µM and inactive = higher.
Entry note: the call must match one of active, inactive

Example entries begin here.
{"molecule": "Cc1cc2nc3c(C#N)c(C)c(CCCl)c(Cl)n3c2cc1C", "classification": "inactive"}
{"molecule": "Cc1c(O)c(OC2OC(CO)C(O)C(O)C2O)cc2c1C=C[C@@H]1[C@@]2(C)C(=O)C[C@]2(C)[C@@H]([C@@](C)(O)C(=O)CCC(C)(C)O)[C@H](O)C[C@@]12C (stereo partly drawn)", "classification": "inactive"}
{"molecule": "COC1CC(OC2C(C)OC(OC3C(C)OC(OC4C(C)OC(O[C@H]5CC[C@@]6(C)C(=CC[C@]7(O)[C@@H]6C[C@@H](OC(C)=O)[C@@]6(C)[C@]7(O)CC[C@@]6(O)C(C)=O)C5)CC4OC)CC3OC)CC2OC)OC(C)C1O (stereo partly drawn)", "classification": "inactive"}
{"molecule": "CCN(CC)CCNc1ccc([N+](=O)[O-])c2nc3ccc(OC)cc3c(N)c12", "classification": "active"}
{"molecule": "CC(=O)Oc1ccc(C2SCc3nc4ccccc4n32)cc1 (stereo not drawn)", "classification": "inactive"}

Problem: Short answer needed: outcome of this test for CC(C(=O)O)C1Nc2ccccc2NC1=O (stereo not drawn) ?
Solution: inactive

Problem: Short answer needed: outcome of this test for O=c1[nH]c2cc3[nH]c4ncccc4c(=O)c3cc2[nH]1 ?
Solution: inactive

Problem: Short answer needed: outcome of this test for CCOC(=O)C(C(=O)OCC)=C1NC2(c3ccccc3Nc3ccc(C)cc32)C(C#N)S1 (stereo not drawn) ?
Solution: inactive

###

- System: COLO 205
- assaySummary: NCI tumour cell line growth inhibition, 48 h
Activity calls are given as the source filed them. Rule as the data show it: active = GI50 up to about 1.1 µM and inactive = higher.
Entry note: the call must match one of true = active, false = inactive

{"compound": "COC(=O)C(CC12CC3CC(CC(C3)C1)C2)NC(=O)C(N)CC(=O)O (configuration not stated)", "classification": "false"}

Problem: Short answer needed: outcome of this test for Cc1ccc(OCC2OC(n3cnc4c(Cl)nc(Nc5cc(Cl)cc(Cl)c5)nc43)CC2Oc2ccc(C)cc2)cc1 (configuration not stated) ?
Solution: false

Problem: Short answer needed: outcome of this test for O=C1c2ccccc2C(=O)c2c(OCCOCCO)cccc21 ?
Solution: false

Problem: Short answer needed: outcome of this test for CN(C)c1cccc2c(S(=O)(=O)NCCCNCCN)cccc12 ?
Solution: false

Problem: Short answer needed: outcome of this test for COc1cc(Cn2c3c(c4c(C(=O)NCCN(C)C)c(O)ccc42)C(=O)c2ccccc2C3=O)cc(OC)c1 ?
Solution: false

Problem: Short answer needed: outcome of this test for C=C(C)/C=C/C(O)[C@](C)(O)[C@H]1[C@H](O)C[C@@]2(C)[C@@H]3CCc4c(cc(OC5OC(CO)C(O)C(O)C5O)c(O)c4C)C3(C)C(=O)C[C@]12C (some centres not stated) ?
Solution: false

###

- Test system: Hs-578T
- assaySummary: NCI tumour cell line growth inhibition, 48 h
Activity calls are given as the source filed them. Rule as the data show it: active = GI50 up to about 1.1 µM and inactive = higher.
Entries and their GI50

Consider the worked cases shown below.
{"molecule": "COC(=O)/C=C(\\C)CC/C=C(\\C)CCC(O)C(C)(C)O (stereo unspecified)", "observedResult": "28.6 µM (inactive)"}
{"molecule": "N#Cc1nc(C2SCCCS2)oc1N", "observedResult": "43 µM (inactive)"}
{"molecule": "Nc1nn2c(=O)c3ccccc3nc2s1", "observedResult": "> 100 µM (inactive)"}
{"molecule": "COc1ccc(C(CC(=O)c2cccs2)C(=O)c2ccc3c(c2)OCO3)cc1 (stereo unspecified)", "observedResult": "> 100 µM (inactive)"}
{"molecule": "COc1cc([C@H]2Oc3c(OC)cc(CCCO)cc3[C@@H]2CO)ccc1O [DIHYDRODEHYDRODICONIFERY ALCOHOL]", "observedResult": "47.2 µM (inactive)"}
{"molecule": "O=C(O)CS(=O)(=O)C(c1ccccc1)c1ccccc1", "observedResult": "> 100 µM (inactive)"}
{"molecule": "Cc1ccc(CC[PH](=O)CCc2ccc(C)nc2)cn1", "observedResult": "> 100 µM (inactive)"}
{"molecule": "O=C(O)c1c2c(cc3c1CC1(Cc4ccccc4C1=O)C3)CCC2 (stereo unspecified)", "observedResult": "34 µM (inactive)"}
{"molecule": "NC(CSc1nc2ccccn2c1[N+](=O)[O-])C(=O)O (stereo unspecified)", "observedResult": "> 100 µM (inactive)"}
{"molecule": "CCOC(=O)/C=C/CCC(C)(C)COC(C)=O", "observedResult": "> 10 µM (inactive)"}

Problem: I have this molecule here, O=C(Nc1ccc(Nc2ccc3c(c2)C(=O)c2ccccc2C3=O)c2c1C(=O)c1ccccc1C2=O)c1ccccc1 , and I need its recorded GI50.
Solution: 32.4 µM (inactive)

Problem: I have this molecule here, COC(=O)/C=C/c1cc(OC)c2oc(-c3ccc(OC)c(OC)c3)c(C(=O)OC)c2c1 , and I need its recorded GI50.
Solution: > 100 µM (inactive)

Problem: I have this molecule here, CO[C@@]12C[C@@H](C)[C@]34O[C@H]3C[C@]3(C)O[C@]43CC1=C(C)C(=O)O2 , and I need its recorded GI50.
Solution: > 100 µM (inactive)

Problem: I have this molecule here, N[C@H](C(=O)O)[C@@H]1CC(Br)=NO1 , and I need its recorded GI50.
Solution: > 100 µM (inactive)

Problem: I have this molecule here, COc1ccc(-c2c(-c3ccccc3)c(C)nc3nc(SC)nc(SC)c23)cc1OC , and I need its recorded GI50.
Solution: 5.05 µM (inactive)

Problem: I have this molecule here, O=c1[nH]c2cc3[nH]c4ncccc4c(=O)c3cc2[nH]1 , and I need its recorded GI50.
Solution: > 10 µM (inactive)

Problem: I have this molecule here, CN(C)c1cccc2c(S(=O)(=O)NCCCNCCN)cccc12 , and I need its recorded GI50.
Solution: 22.3 µM (inactive)

Problem: I have this molecule here, FC(F)(F)c1ccc(/N=C/C=C(/Nc2ccc(C(F)(F)F)cc2)c2ccc(Cl)cc2)cc1 , and I need its recorded GI50.
Solution: 13 µM (inactive)

Problem: I have this molecule here, CCOC(=O)CCC(NC(=O)c1ccc(Nc2nc3ccc(C(F)(F)F)cc3nc2-c2ccccc2)cc1)C(=O)OCC (stereo unspecified) , and I need its recorded GI50.
Solution: 24.4 µM (inactive)

Problem: I have this molecule here, COC(=O)C(CC12CC3CC(CC(C3)C1)C2)NC(=O)C(N)CC(=O)O (stereo unspecified) , and I need its recorded GI50.
Solution: > 100 µM (inactive)

Problem: I have this molecule here, CC1=C(C)C(=O)OC(C(C)(O)C2(O)CC3OC34C3CC(O)C56OC5C=CC(=O)C6(C)C3CCC42C)C1 (stereo unspecified) , and I need its recorded GI50.
Solution: 1.77 µM (inactive)
